Overview of recorded CC50 for various molecules
- Tested on: SK-OV-3
REPORTED_METRIC: CC50

[[record]]
molecule = "C=C1C(=O)O[C@H]2[C@H]1CC/C(COC(=O)CCC(=O)NCCCCCCCCCNC(=O)CCC(=O)OC/C1=C/CC[C@@]3(C)O[C@H]3[C@H]3OC(=O)C(=C)[C@@H]3CC1)=C\\CC[C@@]1(C)O[C@@H]21 [JVM 2-92]"
target_of_assay = "SK-OV-3"
reported_metric = "CC50"
readout_value = "49.1 µM"

[[record]]
molecule = "C=C1C(=O)O[C@H]2[C@H]1CC/C(COC(=O)CCC(=O)NCCCCCCCCNC(=O)CCC(=O)OC/C1=C/CC[C@@]3(C)O[C@H]3[C@H]3OC(=O)C(=C)[C@@H]3CC1)=C\\CC[C@@]1(C)O[C@@H]21 [JVM 2-87]"
target_of_assay = "SK-OV-3"
reported_metric = "CC50"
readout_value = "47.9 µM"


====

Recorded CC50, one value per entry.
- Tested on: RPMI-8226
- ASSAY_COMMENT: NCI 60 cell line five dose, Leukemia
- EXPERIMENTAL_CONTEXT: read-out: LC50
REPORTED_METRIC: CC50

[[record]]
molecule = "C=C1C(=O)O[C@H]2[C@H]1CC/C(COC(=O)NCCCCCNC(=O)OC/C1=C/CC[C@@]3(C)O[C@H]3[C@H]3OC(=O)C(=C)[C@@H]3CC1)=C\\CC[C@@]1(C)O[C@@H]21 [JVM 2-76]"
readout_value = "> 100 µM"

[[record]]
molecule = "C=C1C(=O)O[C@H]2[C@H]1CC/C(COC(=O)NCCCCNC(=O)OC/C1=C/CC[C@@]3(C)O[C@H]3[C@H]3OC(=O)C(=C)[C@@H]3CC1)=C\\CC[C@@]1(C)O[C@@H]21 [JVM 3-54]"
readout_value = "> 100 µM"


====

- System: M14
- ASSAY_COMMENT: NCI 60 cell line five dose, Melanoma
- EXPERIMENTAL_CONTEXT: read-out: LC50, molar
REPORTED_METRIC: CC50 (µM)

[[record]]
smiles_notation = "C=C1C(=O)O[C@H]2[C@H]1CC/C(COC(=O)NCCCCCCCCNC(=O)OC/C1=C/CC[C@@]3(C)O[C@H]3[C@H]3OC(=O)C(=C)[C@@H]3CC1)=C\\CC[C@@]1(C)O[C@@H]21"
unit_string = "µM"
readout_value = 4.53


====

# CC50 listing for each entry below
- System: U251
- ASSAY_COMMENT: NCI 60 cell line five dose, CNS Cancer
- EXPERIMENTAL_CONTEXT: read-out: LC50
REPORTED_METRIC: CC50

[[record]]
smiles_notation = "C=C1C(=O)O[C@H]2[C@H]1CC/C(COC(=O)NCCCCCNC(=O)OC/C1=C/CC[C@@]3(C)O[C@H]3[C@H]3OC(=O)C(=C)[C@@H]3CC1)=C\\CC[C@@]1(C)O[C@@H]21"
reported_metric = "CC50"
readout_value = "51.5 µM"

[[record]]
smiles_notation = "C=C1C(=O)O[C@H]2[C@H]1CC/C(COC(=O)NCCCCNC(=O)OC/C1=C/CC[C@@]3(C)O[C@H]3[C@H]3OC(=O)C(=C)[C@@H]3CC1)=C\\CC[C@@]1(C)O[C@@H]21"
reported_metric = "CC50"
readout_value = "33.3 µM"


====

- Test system: CCRF-CEM
- ASSAY_COMMENT: NCI 60 cell line five dose, Leukemia
REPORTED_METRIC: TGI (µM)

[[record]]
molecule = "C=C1C(=O)O[C@H]2[C@H]1CC/C(COC(=O)CCC(=O)NCCCCCCCCCNC(=O)CCC(=O)OC/C1=C/CC[C@@]3(C)O[C@H]3[C@H]3OC(=O)C(=C)[C@@H]3CC1)=C\\CC[C@@]1(C)O[C@@H]21 [JVM 2-92]"
readout_value = 1.00

[[record]]
molecule = "C=C1C(=O)O[C@H]2[C@H]1CC/C(COC(=O)CCC(=O)NCCCCCCCCNC(=O)CCC(=O)OC/C1=C/CC[C@@]3(C)O[C@H]3[C@H]3OC(=O)C(=C)[C@@H]3CC1)=C\\CC[C@@]1(C)O[C@@H]21 [JVM 2-87]"
readout_value = 1.48

[[record]]
molecule = "C=C1C(=O)O[C@H]2[C@H]1CC/C(COC(=O)NCCCCNC(=O)OC/C1=C/CC[C@@]3(C)O[C@H]3[C@H]3OC(=O)C(=C)[C@@H]3CC1)=C\\CC[C@@]1(C)O[C@@H]21 [JVM 3-54]"
readout_value = 0.845

[[record]]
molecule = "C=C1C(=O)O[C@H]2[C@H]1CC/C(COC(=O)NCCCCCNC(=O)OC/C1=C/CC[C@@]3(C)O[C@H]3[C@H]3OC(=O)C(=C)[C@@H]3CC1)=C\\CC[C@@]1(C)O[C@@H]21 [JVM 2-76]"
readout_value = 0.96


====

- Tested on: A549/ATCC
- ASSAY_COMMENT: NCI 60 cell line five dose, Non-Small Cell Lung Cancer
- EXPERIMENTAL_CONTEXT: read-out: LC50, molar
REPORTED_METRIC: CC50

[[record]]
compound = "C=C1C(=O)O[C@H]2[C@H]1CC/C(COC(=O)NCCCCCCCCNC(=O)OC/C1=C/CC[C@@]3(C)O[C@H]3[C@H]3OC(=O)C(=C)[C@@H]3CC1)=C\\CC[C@@]1(C)O[C@@H]21 [JVM 3-62]"
readout_value = "7.26 µM"


====

- System: NCI/ADR-RES
- ASSAY_COMMENT: NCI 60 cell line five dose, Ovarian Cancer
- EXPERIMENTAL_CONTEXT: read-out: LC50; NCI/ADR-
REPORTED_METRIC: CC50

[[record]]
compound = "C=C1C(=O)O[C@H]2[C@H]1CC/C(COC(=O)NCCCCNC(=O)OC/C1=C/CC[C@@]3(C)O[C@H]3[C@H]3OC(=O)C(=C)[C@@H]3CC1)=C\\CC[C@@]1(C)O[C@@H]21 [JVM 3-54]"
reported_metric = "CC50"
readout_value = "> 100 µM"


====

- System: SNB-75
- ASSAY_COMMENT: NCI 60 cell line five dose, CNS Cancer
Each entry below carries its reported TGI.
REPORTED_METRIC: TGI (µM)

[[record]]
smiles_notation = "C=C1C(=O)O[C@H]2[C@H]1CC/C(COC(=O)CCC(=O)NCCCCCCCCCNC(=O)CCC(=O)OC/C1=C/CC[C@@]3(C)O[C@H]3[C@H]3OC(=O)C(=C)[C@@H]3CC1)=C\\CC[C@@]1(C)O[C@@H]21"
readout_value = 4.35

[[record]]
smiles_notation = "C=C1C(=O)O[C@H]2[C@H]1CC/C(COC(=O)NCCCCNC(=O)OC/C1=C/CC[C@@]3(C)O[C@H]3[C@H]3OC(=O)C(=C)[C@@H]3CC1)=C\\CC[C@@]1(C)O[C@@H]21"
readout_value = 16.5

[[record]]
smiles_notation = "C=C1C(=O)O[C@H]2[C@H]1CC/C(COC(=O)CCC(=O)NCCCCCCCCNC(=O)CCC(=O)OC/C1=C/CC[C@@]3(C)O[C@H]3[C@H]3OC(=O)C(=C)[C@@H]3CC1)=C\\CC[C@@]1(C)O[C@@H]21"
readout_value = 7.25

[[record]]
smiles_notation = "C=C1C(=O)O[C@H]2[C@H]1CC/C(COC(=O)NCCCCCNC(=O)OC/C1=C/CC[C@@]3(C)O[C@H]3[C@H]3OC(=O)C(=C)[C@@H]3CC1)=C\\CC[C@@]1(C)O[C@@H]21"
readout_value = 11.4


====

- Test system: OVCAR-5
- ASSAY_COMMENT: NCI 60 cell line five dose, Ovarian Cancer
Below: a set of entries, each annotated with reported GI50.
REPORTED_METRIC: GI50 (nM)

[[record]]
smiles_notation = "C=C1C(=O)O[C@H]2[C@H]1CC/C(COC(=O)CCC(=O)NCCCCCCCCNC(=O)CCC(=O)OC/C1=C/CC[C@@]3(C)O[C@H]3[C@H]3OC(=O)C(=C)[C@@H]3CC1)=C\\CC[C@@]1(C)O[C@@H]21"
target_of_assay = "OVCAR-5"
readout_value = 1820

[[record]]
smiles_notation = "C=C1C(=O)O[C@H]2[C@H]1CC/C(COC(=O)CCC(=O)NCCCCCCCCCNC(=O)CCC(=O)OC/C1=C/CC[C@@]3(C)O[C@H]3[C@H]3OC(=O)C(=C)[C@@H]3CC1)=C\\CC[C@@]1(C)O[C@@H]21"
target_of_assay = "OVCAR-5"
readout_value = 1700

[[record]]
smiles_notation = "C=C1C(=O)O[C@H]2[C@H]1CC/C(COC(=O)NCCCCCNC(=O)OC/C1=C/CC[C@@]3(C)O[C@H]3[C@H]3OC(=O)C(=C)[C@@H]3CC1)=C\\CC[C@@]1(C)O[C@@H]21"
target_of_assay = "OVCAR-5"
readout_value = 1670

[[record]]
smiles_notation = "C=C1C(=O)O[C@H]2[C@H]1CC/C(COC(=O)NCCCCNC(=O)OC/C1=C/CC[C@@]3(C)O[C@H]3[C@H]3OC(=O)C(=C)[C@@H]3CC1)=C\\CC[C@@]1(C)O[C@@H]21"
target_of_assay = "OVCAR-5"
readout_value = 1750

